Listed here are compounds together with their documented inhibition.
biological target: Kappa-type opioid receptor (Homo sapiens); experiment: kappa opioid receptor blockers – cell-based, luminescence, uHTS (AID 1778); details: KOR beta-arrestin recruitment, antagonist mode, active compounds read high; at 10 µM unless noted
The whole screen tested about 290,000 compounds, of which about 260 (0.09%) were called active. This is one part of a sample in which actives are shown more often than they occur. Entries with a potency or affinity are not part of this list.

compound | measured value
C/C(=N\NC(=O)C1COc2ccccc2O1)c1ccc(C)o1 (stereo unspecified) | 13.3% (inactive)
COC(=O)c1ccc(OC(=O)c2cccnc2SC)cc1 | -3.6% (inactive)
COc1ccc(N2CCN(C(=O)c3cc4c(=O)n(Cc5ccccc5)ccc4nc3C)CC2)cc1 | -13.1% (inactive)
COc1ccc(C(=O)N/N=C(\C)CC(=O)Nc2ccccn2)cc1OC | 3.4% (inactive)
C/C(=N\NC(=O)C1COc2ccccc2O1)c1cccs1 (stereo unspecified) | -9.2% (inactive)
COCCN(C(=O)c1cccc(OC)c1)c1nnc(-c2ccncc2)s1 | 24.5% (inactive)

Query: Field request: inhibition | item: `COC(=O)CCC(=O)Nc1c(C)n(C)n(-c2ccccc2)c1=O`
Response: 22.3% [at 20 µM] (inactive)

Query: Field request: inhibition | item: `COc1cc(C(=O)N/N=C(\C)c2ccccn2)cc(OC)c1OC`
Response: -6.4% (inactive)

Query: Field request: inhibition | item: `O=C(N/N=C/c1ccccn1)c1ccc(NC(=O)c2cccc([N+](=O)[O-])c2)cc1`
Response: -28.7% (inactive)

Query: Field request: inhibition | item: `O=C(N/N=C/c1ccccn1)c1ccccc1`
Response: 30.7% (inactive)

Query: Field request: inhibition | item: `O=C(/C=C/c1cccc([N+](=O)[O-])c1)c1cccs1`
Response: 14.1% (inactive)

====

Listed here are compounds together with their documented inhibition.
biological target: Kappa-type opioid receptor (Homo sapiens) (UniProt P41145); experiment: kappa opioid receptor blockers – cell-based, luminescence, uHTS (AID 1778); details: KOR beta-arrestin recruitment, antagonist mode, active compounds read high; at 10 µM unless noted
Sequence (P41145 whole entry, looked up): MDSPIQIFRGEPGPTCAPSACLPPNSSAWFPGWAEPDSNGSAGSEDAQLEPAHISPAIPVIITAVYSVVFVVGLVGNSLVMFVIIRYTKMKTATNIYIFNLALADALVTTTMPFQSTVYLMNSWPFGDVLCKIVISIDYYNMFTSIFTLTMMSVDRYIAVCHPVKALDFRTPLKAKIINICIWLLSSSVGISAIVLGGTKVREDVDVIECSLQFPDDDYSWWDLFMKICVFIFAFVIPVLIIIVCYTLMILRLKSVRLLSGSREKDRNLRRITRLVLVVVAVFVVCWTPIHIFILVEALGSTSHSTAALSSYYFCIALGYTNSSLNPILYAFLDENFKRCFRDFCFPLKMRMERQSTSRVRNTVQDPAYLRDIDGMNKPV
In all, about 290,000 compounds went through this assay and about 260 (0.09%) were called active. The entries come from a sample that favours actives as a whole. Measured potencies and affinities stand elsewhere.

Solved cases below.
compound | inhibition
Cc1nn(C)cc1S(=O)(=O)Nc1ccc(F)c(F)c1 | 9% (inactive)
C/C(=N\Nc1nc2ccccc2[nH]1)c1ccc(Cl)s1 | 20.9% (inactive)
C/C(=N\Nc1ccc(Cl)cc1)c1ccccn1 | 1.2% (inactive)
C/C(=N\NC(=O)c1cc2ccccc2cc1O)c1cccs1 | 1.2% (inactive)

Query: # returns recorded inhibition (system: Kappa-type opioid receptor (Homo sapiens) (UniProt P41145)) for `O=C(N/N=C/c1ccc2ncccc2c1)c1cc(-c2cccs2)nc2ccccc12`
Response: 28.4% (inactive)

Query: # returns recorded inhibition (system: Kappa-type opioid receptor (Homo sapiens) (UniProt P41145)) for `CCOC(=O)C1(Cc2ccccc2)CCN(Cc2cc(OC)c3c(c2)OCO3)CC1`
Response: -13.9% [at 20 µM] (inactive)

Query: # returns recorded inhibition (system: Kappa-type opioid receptor (Homo sapiens) (UniProt P41145)) for `C/C(=N\NC(=O)c1cccc(Br)c1)c1cccnc1`
Response: -7.4% (inactive)

Query: # returns recorded inhibition (system: Kappa-type opioid receptor (Homo sapiens) (UniProt P41145)) for `CC(C)(C)c1ccc(-n2nc(C(N)=O)c(O)cc2=O)cc1`
Response: -2% (inactive)

Query: # returns recorded inhibition (system: Kappa-type opioid receptor (Homo sapiens) (UniProt P41145)) for `CCNCc1cc(Cl)c(OCc2ccccc2)c(OCC)c1`
Response: 12.3% (inactive)

Query: # returns recorded inhibition (system: Kappa-type opioid receptor (Homo sapiens) (UniProt P41145)) for O=C(O)c1ccccc1S(=O)(=O)NCC(O)COc1ccc(Br)cc1 (stereo unspecified)
Response: 22.9% (inactive)

Query: # returns recorded inhibition (system: Kappa-type opioid receptor (Homo sapiens) (UniProt P41145)) for O=C(CSC1=NC(=O)C(c2ccccc2)C(=O)N1)Nc1cccc(Cl)c1 (stereo unspecified)
Response: -48.8% (inactive)

====

biological target: Kappa-type opioid receptor (Homo sapiens); assay: kappa opioid receptor blockers – cell-based, luminescence, uHTS (AID 1778); conditions: KOR beta-arrestin recruitment, antagonist mode; at 10 µM unless noted
Screen size: about 290,000 compounds; about 260 (0.09%) were called active. Rule as the data show it: active = inhibition above about 50%; inactive = the rest. What follows is part of a selection rich in actives, with near analogues and random picks from the rest. Entries with a potency or affinity are not part of this list.
Returns: one label drawn from yes for active, no for inactive

Some solved entries appear below for comparison.
molecule | category
COc1ccc(C(=O)/C=C/C(=O)N(Cc2ccc(F)cc2)C(C(=O)NC2CCCCC2)c2ccncc2)c(O)c1 (stereo unspecified) | no
CC(C)Oc1cccc(C(=O)N/N=C/c2ccoc2)c1 | no
COc1ccc(C(=O)/C=C/C(=O)N(CC(=O)NC2CCCCC2)Cc2ccc(F)cc2)c(O)c1 | no
COc1ccc(C(=O)/C=C/C(=O)N(CC(=O)NC2CCCCC2)CC2CCCO2)c(O)c1 (stereo unspecified) | yes
Cc1ccc2nc(N3C(=O)CNC3=S)sc2c1 | no
CC1(C)CC(=O)C(/C=N/c2ccccn2)=C(O)C1 | no

Query: Could you please tell me the result logged for `O=C1CNC(=S)N1c1nc2ccccc2s1` in this assay?
Response: no

Query: Could you please tell me the result logged for `CCOC(=O)c1c(C)[nH]c(C)c1C(=O)CSc1nc2ccccc2c(=O)n1-c1ccc(Cl)cc1` in this assay?
Response: no

Query: Could you please tell me the result logged for `COc1ccc2nc(N3C(=O)CNC3=S)sc2c1` in this assay?
Response: no

Query: Could you please tell me the result logged for `Cc1cc(NS(=O)(=O)c2ccc(NC(=O)c3ccc(Cl)cc3Cl)cc2)no1` in this assay?
Response: no

Query: Could you please tell me the result logged for COc1ccc(C(=O)/C=C/C(=O)N(Cc2ccccc2OC)C(C(=O)NC2CCCCC2)c2ccncc2)c(O)c1 (stereo unspecified) in this assay?
Response: no

Query: Could you please tell me the result logged for `COc1ccc(N2CCN(C(=O)C(=O)c3c(C)n(C)c4ccccc34)CC2)cc1` in this assay?
Response: no

Query: Could you please tell me the result logged for Cc1ccnc(NC(=O)CCC(=O)N(CC(=O)NC2CCCCC2)CC2CCCO2)c1 (stereo unspecified) in this assay?
Response: no

====

target: Kappa-type opioid receptor (Homo sapiens); test: kappa opioid receptor blockers – cell-based, luminescence, uHTS (AID 1778); settings: KOR beta-arrestin recruitment, antagonist mode; at 10 µM unless noted
Among all 290,000 compounds or so, about 260 (0.09%) were called active. Cut-off read from the data, not from the text of the source: active = inhibition above about 50%; inactive = the rest. Many of the other results were omitted from the sample, so actives are more common in it than they were. Measured potencies and affinities stand elsewhere.
Returns: one label drawn from class 1 = active, class 0 = inactive

Query: Could you please tell me the result logged for `O=C(Nc1ccc(CN2CCS(=O)(=O)CC2)cc1)c1ccccc1` in this assay?
Response: class 0

Query: Could you please tell me the result logged for `CC(C)(C)NC(=O)c1cc(NC(=O)c2cccs2)cc(NC(=O)c2cccs2)c1` in this assay?
Response: class 0

Query: Could you please tell me the result logged for `C/C(=N/NC(=O)c1ccccn1)c1ccc(O)cc1` in this assay?
Response: class 0

Query: Could you please tell me the result logged for `COc1ccc(OCC(=O)Nc2cc(NC(=O)c3ccco3)ccc2OC)cc1` in this assay?
Response: class 0

Query: Could you please tell me the result logged for `CC1=NN(c2ccccc2)C(=O)/C1=C/C=C/c1ccccc1` in this assay?
Response: class 0

Query: Could you please tell me the result logged for Oc1[nH]c2ccccc2c1N=NC(=S)NCC1CCCO1 (stereo not given) in this assay?
Response: class 0

Query: Could you please tell me the result logged for `Cc1ccc(O)c(CO)n1` in this assay?
Response: class 0

Query: Could you please tell me the result logged for `CN(CC(=O)Nc1ccc(F)c(F)c1F)C(=O)c1ccc(=O)[nH]c1` in this assay?
Response: class 0

Query: Could you please tell me the result logged for CCNC(=O)NC(=O)C(C)OC(=O)CCS(=O)(=O)c1ccc(C)cc1 (stereo not given) in this assay?
Response: class 0

Query: Could you please tell me the result logged for `C/C(=N/NC(=O)c1ccccn1)c1ccncc1` in this assay?
Response: class 0

Query: Could you please tell me the result logged for `CSc1sc2ccccc2[n+]1CCCS(=O)(=O)[O-]` in this assay?
Response: class 0

Query: Could you please tell me the result logged for O=C(C1CC1)N1N=C(c2ccc(F)cc2)CC1(O)C(F)(F)F (stereo not given) in this assay?
Response: class 0

Query: Could you please tell me the result logged for `Cc1csc(NC(=O)CCCc2cccs2)n1` in this assay?
Response: class 0

Query: Could you please tell me the result logged for `Cc1cccc(CSc2ccc3nnc(-c4ccccn4)n3n2)c1` in this assay?
Response: class 0

Query: Could you please tell me the result logged for `COc1cc(OC)cc(C(=O)NCC(=O)OCc2cc(=O)oc3cc(OC)ccc23)c1` in this assay?
Response: class 0

Query: Could you please tell me the result logged for CCc1nc(N2CCN(C(C)=O)CC2)c2c3c(sc2n1)CC(C(C)(C)C)CC3 (stereo not given) in this assay?
Response: class 0
